Origin of measurements: patent US7501430B2

Item-by-item account of IC50
Target: mutant B-RAF (Homo sapiens, UniProt P15056, V600E)
Construct: purchased Upstate (Charlottesville, Va.)
Sequence (P15056 whole entry V600E): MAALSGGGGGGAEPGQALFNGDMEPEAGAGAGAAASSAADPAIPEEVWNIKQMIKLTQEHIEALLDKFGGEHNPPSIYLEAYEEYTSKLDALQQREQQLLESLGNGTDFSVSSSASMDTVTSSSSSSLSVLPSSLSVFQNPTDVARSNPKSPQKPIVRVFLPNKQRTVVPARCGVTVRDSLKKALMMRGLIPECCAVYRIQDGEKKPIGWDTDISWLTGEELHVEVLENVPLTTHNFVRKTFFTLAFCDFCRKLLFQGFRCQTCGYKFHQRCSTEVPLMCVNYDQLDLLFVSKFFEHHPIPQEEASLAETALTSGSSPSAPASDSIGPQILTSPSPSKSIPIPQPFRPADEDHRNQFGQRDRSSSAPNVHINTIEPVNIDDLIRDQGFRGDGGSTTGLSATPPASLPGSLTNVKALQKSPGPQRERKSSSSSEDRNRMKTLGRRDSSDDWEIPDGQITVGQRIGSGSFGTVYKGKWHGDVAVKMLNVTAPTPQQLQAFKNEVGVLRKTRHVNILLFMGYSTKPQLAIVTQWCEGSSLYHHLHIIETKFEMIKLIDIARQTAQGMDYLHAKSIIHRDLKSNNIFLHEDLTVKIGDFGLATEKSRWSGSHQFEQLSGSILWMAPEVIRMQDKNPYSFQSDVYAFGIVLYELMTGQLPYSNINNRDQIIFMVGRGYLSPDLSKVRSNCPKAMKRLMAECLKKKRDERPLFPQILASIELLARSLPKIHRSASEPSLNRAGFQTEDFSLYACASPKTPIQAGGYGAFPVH
Experiment: RAF biochemical assay (MEK-1 phosphorylation, anti-phospho MEK1/2 detection)
Details: read-out: Mutant B-RAF IC50

Sample answers from the record:
[[record]]
compound = "COc1cccc(-c2nc3sccn3c2-c2ccnc(NC3CCN(C(=O)NCc4ccco4)CC3)n2)c1 [Example 234]"
quantity_name = "IC50"
readout_value = "825 nM"

[[record]]
compound = "NCC(=O)Nc1cccc(-c2nc3sccn3c2-c2ccnc(N[C@@H]3CCCN(S(=O)(=O)c4ccc(Cl)cc4)C3)n2)c1 [Example 124]"
quantity_name = "IC50"
readout_value = "2960 nM"

[[record]]
compound = "COc1cccc(-c2nc3occn3c2-c2ccnc(N[C@@H]3CCCNC3)n2)c1 [Example 115]"
quantity_name = "IC50"
readout_value = "> 10000 nM"


Query string: Look at this compound and give its reported IC50. O=S(=O)(c1ccc(Cl)cc1)N1CCC[C@@H](Nc2nccc(-c3c(-c4cccc(O)c4)nc4sccn34)n2)C1 [Example 288]
Result string: 2 nM

Query string: Then O=C(c1ccc(F)cc1)N1CCC(Nc2nccc(-c3c(-c4ccc(F)cc4)nc4sccn34)n2)CC1 [Example 289] ?
Result string: > 10000 nM

Query string: Then c1ccc2cc(-c3nc4sccn4c3-c3ccnc(N[C@@H]4CCCNC4)n3)ccc2c1 [Example 97] ?
Result string: 314 nM

Query string: Then CS(=O)(=O)N1CCC(Nc2nccc(-c3c(-c4cccc(O)c4)nc4occn34)n2)CC1 [Example 342] ?
Result string: 258 nM

Query string: Then Cc1cn2c(-c3ccnc(N[C@@H]4CCCN(C(=O)Nc5ccc(N(C)C)cc5)C4)n3)c(-c3ccc(F)cc3)nc2s1 [Example 94] ?
Result string: > 3000 nM

Query string: Then Fc1ccc(-c2nc3sccn3c2-c2ccnc(NC3CNC3)n2)cc1 [Example 287] ?
Result string: 2490 nM

Query string: Then O=C(O)c1ccc(-c2nc3sccn3c2-c2ccnc(N[C@@H]3CCCN(S(=O)(=O)c4ccc(Cl)cc4)C3)n2)cc1O [Example 133] ?
Result string: 840 nM

Query string: Then O=C(c1ccccc1)N1CCC[C@@H](Nc2nccc(-c3c(-c4ccc(F)cc4)nc4occn34)n2)C1 [Example 26] ?
Result string: 195 nM

Query string: Then O=S(=O)(Cc1ccccc1)N1CCC[C@@H](Nc2nccc(-c3c(-c4cccc(O)c4)nc4sccn34)n2)C1 [Example 369] ?
Result string: > 3000 nM

Query string: Then O=C(c1ccncc1)N1CCC[C@@H](Nc2nccc(-c3c(-c4cccc(O)c4)nc4sccn34)n2)C1 [Example 117] ?
Result string: 328 nM

Query string: Then COc1cccc(-c2nc3sccn3c2-c2ccnc(N[C@@H]3CCCN(S(=O)(=O)c4ccc(CCC(=O)O)cc4)C3)n2)c1 [Example 118] ?
Result string: 229 nM

Query string: Then COc1cccc(-c2nc3sccn3c2-c2ccnc(N[C@@H]3CCCN(S(=O)(=O)c4ccc(Cl)cc4)C3)n2)c1 [Example 95] ?
Result string: 147 nM
